Quick reference: MEC (minimal effective concentration) of the listed items.
# testTarget: recombinant guanylate cyclase reporter cell line (Rattus norvegicus, UniProt P19686+P20595)
# Construct: expressed in transfected cells
# Sequence (P20595 1-619): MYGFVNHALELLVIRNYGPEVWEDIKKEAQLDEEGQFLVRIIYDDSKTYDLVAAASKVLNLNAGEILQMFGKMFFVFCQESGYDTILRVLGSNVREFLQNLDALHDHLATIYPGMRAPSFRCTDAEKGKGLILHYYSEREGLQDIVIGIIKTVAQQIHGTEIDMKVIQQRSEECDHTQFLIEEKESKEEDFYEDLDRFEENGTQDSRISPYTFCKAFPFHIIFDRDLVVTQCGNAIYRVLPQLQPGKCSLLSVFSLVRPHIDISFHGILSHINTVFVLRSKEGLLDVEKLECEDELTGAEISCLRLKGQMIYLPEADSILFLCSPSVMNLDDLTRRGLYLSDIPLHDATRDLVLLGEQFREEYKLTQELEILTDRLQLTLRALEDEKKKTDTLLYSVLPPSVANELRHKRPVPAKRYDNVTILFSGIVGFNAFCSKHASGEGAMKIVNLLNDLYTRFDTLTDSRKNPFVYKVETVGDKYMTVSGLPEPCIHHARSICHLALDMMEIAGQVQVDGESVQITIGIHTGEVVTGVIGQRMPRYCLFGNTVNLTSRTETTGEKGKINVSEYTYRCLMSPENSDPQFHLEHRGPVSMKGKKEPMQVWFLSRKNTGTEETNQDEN
# Sequence (P19686 1-690): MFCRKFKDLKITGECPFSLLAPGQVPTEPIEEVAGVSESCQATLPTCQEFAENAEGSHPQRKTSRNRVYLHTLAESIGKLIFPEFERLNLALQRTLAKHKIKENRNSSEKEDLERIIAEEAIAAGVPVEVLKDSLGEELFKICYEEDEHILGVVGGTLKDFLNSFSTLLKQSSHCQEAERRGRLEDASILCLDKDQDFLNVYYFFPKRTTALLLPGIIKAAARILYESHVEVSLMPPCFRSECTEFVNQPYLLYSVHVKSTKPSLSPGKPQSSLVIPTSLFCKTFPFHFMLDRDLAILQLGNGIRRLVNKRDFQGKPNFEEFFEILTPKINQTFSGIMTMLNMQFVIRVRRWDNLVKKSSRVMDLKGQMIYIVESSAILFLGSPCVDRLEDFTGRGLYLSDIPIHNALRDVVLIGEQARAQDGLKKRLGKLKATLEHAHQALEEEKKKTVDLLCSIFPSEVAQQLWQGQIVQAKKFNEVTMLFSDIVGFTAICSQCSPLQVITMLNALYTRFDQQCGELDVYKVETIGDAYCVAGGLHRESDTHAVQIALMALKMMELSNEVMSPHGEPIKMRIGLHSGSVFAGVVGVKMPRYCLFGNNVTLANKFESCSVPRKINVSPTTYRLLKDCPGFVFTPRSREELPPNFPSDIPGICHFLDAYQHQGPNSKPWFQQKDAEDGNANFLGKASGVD
# experimentalDetails: Action on recombinant guanylate cyclase reporter cell line
# Assay type: cell-based
# conditionInfo: in some cases mean values obtained from individual determinations
Counter-ions that a name gives are not always drawn.
measurementKind: MEC (minimal effective concentration)

• Cc1nc2c(OCc3c(F)cccc3F)cccn2c1C(=O)NC(CCCC(F)(F)F)C(C)(C)O (single isomer, unassigned; ent-8) [Example 156] = 0.03 µM
• CC[C@H](CO)NC(=O)c1c(C)nc2c(OCc3cccc(Cl)c3Cl)cccn12 [Example 45] = 0.65 µM
• Cc1nc2c(OCC3CCCCC3)cccn2c1C(=O)NCCO [Example 76, formate] = 0.3 µM
• C=CCC(CO)NC(=O)c1c(C)nc2c(OCC3CCCCC3)cccn12 (racemic) [Example 70] = 0.1 µM

---

# testTarget: recombinant guanylate cyclase reporter cell line (Rattus norvegicus, UniProt P19686+P20595)
# Construct: expressed in transfected cells
# Sequence (P20595 1-619): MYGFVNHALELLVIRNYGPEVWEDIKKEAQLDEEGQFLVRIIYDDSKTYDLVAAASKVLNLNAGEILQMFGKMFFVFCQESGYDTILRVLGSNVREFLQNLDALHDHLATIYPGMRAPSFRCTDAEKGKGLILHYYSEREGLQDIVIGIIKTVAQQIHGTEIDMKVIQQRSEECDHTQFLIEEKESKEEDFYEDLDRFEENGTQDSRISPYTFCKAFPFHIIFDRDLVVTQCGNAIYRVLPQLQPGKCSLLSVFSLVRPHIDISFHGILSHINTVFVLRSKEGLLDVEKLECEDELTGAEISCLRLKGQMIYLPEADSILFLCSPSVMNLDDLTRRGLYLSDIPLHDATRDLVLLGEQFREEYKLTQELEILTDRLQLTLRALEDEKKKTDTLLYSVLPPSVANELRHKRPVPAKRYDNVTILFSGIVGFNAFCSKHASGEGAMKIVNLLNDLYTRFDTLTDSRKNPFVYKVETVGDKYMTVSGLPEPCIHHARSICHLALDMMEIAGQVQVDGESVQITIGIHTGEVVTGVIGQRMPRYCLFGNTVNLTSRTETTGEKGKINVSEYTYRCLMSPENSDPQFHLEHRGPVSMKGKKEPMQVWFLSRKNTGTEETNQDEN
# Sequence (P19686 1-690): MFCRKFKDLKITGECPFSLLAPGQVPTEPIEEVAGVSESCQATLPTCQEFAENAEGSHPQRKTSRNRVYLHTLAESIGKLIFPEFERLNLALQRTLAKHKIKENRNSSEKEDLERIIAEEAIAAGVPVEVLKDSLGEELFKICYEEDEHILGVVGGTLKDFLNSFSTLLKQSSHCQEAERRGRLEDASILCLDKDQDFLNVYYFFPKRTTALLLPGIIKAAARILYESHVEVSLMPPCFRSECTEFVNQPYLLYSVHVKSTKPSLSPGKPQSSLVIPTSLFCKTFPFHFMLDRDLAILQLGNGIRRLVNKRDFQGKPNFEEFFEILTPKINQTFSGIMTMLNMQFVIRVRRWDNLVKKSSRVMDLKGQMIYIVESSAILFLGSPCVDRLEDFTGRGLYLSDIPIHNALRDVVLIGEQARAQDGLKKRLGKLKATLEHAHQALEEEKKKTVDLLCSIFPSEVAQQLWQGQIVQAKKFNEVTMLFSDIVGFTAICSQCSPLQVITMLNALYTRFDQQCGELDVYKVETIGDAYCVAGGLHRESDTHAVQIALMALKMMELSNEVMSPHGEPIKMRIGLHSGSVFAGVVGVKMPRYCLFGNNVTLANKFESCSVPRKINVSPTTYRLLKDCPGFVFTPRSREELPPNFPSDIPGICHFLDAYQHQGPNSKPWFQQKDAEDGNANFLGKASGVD
# experimentalDetails: Action on recombinant guanylate cyclase reporter cell line
# Format: cell-based
# conditionInfo: in some cases mean values obtained from individual determinations
# Procedure: B-2. Action on Recombinant Guanylate Cyclase Reporter Cell Line The cellular action of the compounds according to the invention is determined on a recombinant guanylate cyclase reporter cell line, as described in F. Wunder et al., Anal. Biochem. 339, 104-112 (2005). Representative values (MEC=minimal effective concentration) for the compounds according to the invention are shown in the following table (in some cases as mean values obtained from individual determinations): […]
Counter-ions that a name gives are not always drawn.
measurementKind: MEC (minimal effective concentration) (µM)

* Cc1nc2c(OCc3c(F)cccc3F)cccn2c1C(=O)NC(CO)c1ccccn1 (racemic) [Example 119] | 0.3
* CCCC[C@H](CO)NC(=O)c1c(C)nc2c(OCc3ccccc3F)cccn12 [Example 5] | 0.1
* Cc1nc2c(OCc3c(F)cccc3F)cc(Cl)cn2c1C(=O)N[C@@H](CO)CCCO [Example 127] | 0.3
* C#Cc1cc(OCc2c(F)cccc2F)c2nc(C)c(C(=O)N[C@@H](CO)CCCC)n2c1 [Example 126] | 0.1
* Cc1cc(OCc2c(F)cncc2F)c2nc(C)c(C(=O)NC(CCCC(F)(F)F)C(C)(C)O)n2c1 (single isomer, unassigned; ent-8) [Example 189] | 1
* CCC[C@H](CO)NC(=O)c1c(C)nc2c(OCc3c(F)cccc3F)cccn12 [Example 18] | 0.1
* CCCC[C@H](CO)NC(=O)c1c(C)nc2c(OCc3c(F)cccc3F)c(F)ccn12 [Example 177] | 1.0
* Cc1nc2c(OCc3c(F)cccc3F)cccn2c1C(=O)N[C@@H](CO)CC[C@@H](O)C(F)(F)F [Example 135] | 0.1
* Cc1nc2c(OCC3CCCCC3)cccn2c1C(=O)N[C@H](CO)CC(C)C [Example 95] | 3.0
* Cc1nc2c(OCc3c(F)cccc3F)cccn2c1C(=O)NCCC1(O)CCCC1 [Example 117] | 0.03
* CCCC[C@H](CO)NC(=O)c1c(C)nc2c(OCc3cccc(C)c3F)cccn12 [Example 11] | 1.5
* Cc1nc2c(OCC3CCCCC3)cccn2c1C(=O)NCCCCO [Example 74] | 0.2
* Cc1nc2c(OCc3c(F)cccc3F)cccn2c1C(=O)NCCCCO [Example 23] | 0.3
* Cc1nc2c(OCc3c(F)cccc3F)cccn2c1C(=O)NC[C@H](O)c1ccccc1 [Example 33] | 0.3
* Cc1cc(OCc2ncccc2F)c2nc(C)c(C(=O)NC(CCCC(F)(F)C(F)(F)F)C(C)(C)O)n2c1 (single isomer, unassigned; ent-8) [Example 192] | 2
* Cc1nc2c(OCc3ncccc3F)cccn2c1C(=O)NC(CC(F)(F)F)C(C)(C)O (racemic) [Example 180] | 1
* Cc1nc2c(OCc3c(F)cccc3F)cccn2c1C(=O)NCCO [Example 21] | 1.0
* CCC(O)CNC(=O)c1c(C)nc2c(OCc3c(F)cccc3F)cccn12 (stereo not shown) [Example 30] | 0.3
* CCCC[C@H](CO)NC(=O)c1c(C)nc2c(OCc3c(F)cccc3F)cc(CC)cn12 [Example 60] | 0.1
* CCCC[C@H](CO)NC(=O)c1c(C)nc2c(OCc3cccc(F)c3F)cccn12 [Example 10] | 0.3
* Cc1cc(OCCC(C(F)(F)F)C(F)(F)F)c2nc(C)c(C(=O)NC(CCCC(F)(F)F)C(C)(C)O)n2c1 (racemic) [Example 170] | 3.0
* Cc1nc2c(OCc3ccccc3F)cccn2c1C(=O)NC(CO)CO [Example 51] | 5.5
* CCCC[C@H](CO)NC(=O)c1c(C)nc2c(OCc3c(F)cccc3F)cc(Br)cn12 [Example 65] | 0.03
* CCOCC(CO)NC(=O)c1c(C)nc2c(OCc3c(F)cccc3F)cccn12 (racemic) [Example 160] | 0.3
* Cc1nc2c(OCc3c(F)cccc3F)cccn2c1C(=O)NC(CO)CCC(F)(F)F (racemic) [Example 101, trifluoroacetate] | 0.1
* Cc1nc2c(OCC3CCCCC3)cccn2c1C(=O)NCCCO [Example 82] | 0.3
* Cc1cc(OCc2ncccc2F)c2nc(C)c(C(=O)NC(CCCC(F)(F)F)C(C)(C)O)n2c1 (racemic) [Example 178, trifluoroacetate] | 1
* Cc1cc(OCc2ncccc2F)c2nc(C)c(C(=O)NC(CCCC(F)(F)C(F)(F)F)C(C)(C)O)n2c1 (racemic) [Example 190] | 1
* Cc1nc2c(OCc3c(F)cccc3F)cccn2c1C(=O)NC(CC(F)(F)F)C(C)(C)O (single isomer, unassigned; ent-8) [Example 154] | 0.03
* CCCC[C@H](CO)NC(=O)c1c(C)nc2c(OCc3c(F)cc(F)cc3F)cccn12 [Example 15] | 0.1
* CCCC[C@@H](NC(=O)c1c(C)nc2c(OCc3c(F)cccc3F)cccn12)C(C)(C)O [Example 147] | 0.1
